test system: PNAG conjugates on the array (dPNAG, PNAG and intermediate levels of deacetylation); assay: Neoglycoprotein (glycan) microarray binding, 816-component array; details: ability to bind both dPNAG and PNAG and intermediate levels of deacetylation

# molecule, PNAG Binding on Array
measured = [
    ("TG10 P108A: TG10 HC P108A (SEQ ID NO: 36) with TG10 LC (SEQ ID NO: 12) (antibody, V domains shown, Site directed mutation of TG10 HC Variable Region; TG10 Light Chain Variable Region) VH: EVQLVESGGGLVQPGGSLRLSCAVSGFPFSSYWMSWVRQAPGKGLEWVANIKEDGSEKYYVDSVKGRFTISRDNAKNSLYLQMNSLRAEDTAVYYCATDADVGLSDSWGQGTLVTVSS VL: EIVLTQSPGTLSLSPGDRATHSCRASQSVSRSYLAWYQQKPGQTPRLFIYGASNRATGIPDRFSGSGSGTYFTLTISRLEPEDFAVYYCQQYDSAPDTFGQGTRLEIK", "Yes"),
    ("285 × TG: 4488285 HC (SEQ ID NO: 46) with TG10 LC (SEQ ID NO: 12) (antibody, V domains shown, Based on an antibody sequence.; TG10 Light Chain Variable Region) VH: EVQLVESGGGLVQPGGSLRLSCAASGFTFSSYWMSWVRQAPGKGLEWVANIKQDGSEKYYVDSVKGRFTISRDNAKNSLYLQMNSLRAEDTAVYYCARDPYMGLIDYWGQGTLVTVSS VL: EIVLTQSPGTLSLSPGDRATHSCRASQSVSRSYLAWYQQKPGQTPRLFIYGASNRATGIPDRFSGSGSGTYFTLTISRLEPEDFAVYYCQQYDSAPDTFGQGTRLEIK", "No"),
    ("TG10 Y37A: TG10 HC Y37A (SEQ ID NO: 31) with TG10 LC (SEQ ID NO: 12) (antibody, V domains shown, Site directed mutation of TG10 HC Variable Region; TG10 Light Chain Variable Region) VH: EVQLVESGGGLVQPGGSLRLSCAVSGFPFSSAWMSWVRQAPGKGLEWVANIKEDGSEKYYVDSVKGRFTISRDNAKNSLYLQMNSLRAEDTAVYYCATDPDVGLSDSWGQGTLVTVSS VL: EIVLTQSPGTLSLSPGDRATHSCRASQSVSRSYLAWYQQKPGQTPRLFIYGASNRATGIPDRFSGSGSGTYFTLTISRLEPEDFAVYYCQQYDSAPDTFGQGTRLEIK", "Yes"),
    ("TG10 D109K: TG10 HC D109K (SEQ ID NO: 48) with TG10 LC (SEQ ID NO: 12) (antibody, V domains shown, Site directed mutatation of TG10 HC Variable Region; TG10 Light Chain Variable Region) VH: EVQLVESGGGLVQPGGSLRLSCAVSGFPFSSYWMSWVRQAPGKGLEWVANIKEDGSEKYYVDSVKGRFTISRDNAKNSLYLQMNSLRAEDTAVYYCATDPKVGLSDSWGQGTLVTVSS VL: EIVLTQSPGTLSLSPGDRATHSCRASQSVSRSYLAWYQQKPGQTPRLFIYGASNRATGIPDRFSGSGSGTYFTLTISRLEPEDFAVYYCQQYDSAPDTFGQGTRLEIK", "No"),
]

Where do the numbers come from? From patent US20260015434A1.
